Cited source for all entries: patent US20220162331A1

Reported values of EC50 for individual entries
- tgt: T1, human CD73 on Calu6 cells (human, UniProt P21589 27-549)
- T1 construct: whole, on cells; Endogenous CD73 of the Calu6 cell line; also called CD73 on cell membrane surface
- T1 sequence (looked up): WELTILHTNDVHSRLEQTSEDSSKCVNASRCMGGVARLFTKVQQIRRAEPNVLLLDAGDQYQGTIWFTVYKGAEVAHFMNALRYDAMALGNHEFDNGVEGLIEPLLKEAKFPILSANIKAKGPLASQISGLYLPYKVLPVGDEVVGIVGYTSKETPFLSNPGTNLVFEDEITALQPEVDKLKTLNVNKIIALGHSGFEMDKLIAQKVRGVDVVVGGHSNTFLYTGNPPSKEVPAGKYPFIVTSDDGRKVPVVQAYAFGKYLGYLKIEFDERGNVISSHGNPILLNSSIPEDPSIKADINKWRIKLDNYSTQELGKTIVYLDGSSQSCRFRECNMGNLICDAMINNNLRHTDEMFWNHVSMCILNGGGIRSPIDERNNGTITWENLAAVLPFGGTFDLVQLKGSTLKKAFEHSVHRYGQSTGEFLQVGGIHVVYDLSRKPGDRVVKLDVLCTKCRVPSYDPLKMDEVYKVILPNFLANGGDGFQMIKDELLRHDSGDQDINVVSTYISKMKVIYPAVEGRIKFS
- protocolText: FACS on Calu6 cells
Field format: number, assumed nM, no unit text.

Past entries and their recorded results:
response.value for CD73 antibody 6A8 (antibody, V domains shown, Mouse variable regions on human IgG heavy chain constant region and human kappa constant region (chimeric IgG); also called Clone 6A8) VH: QVQFQQSGAELARPGTSVKLSCKASGYIFTSYWIQWIKQRPGQGLEWIGAIYPGDGDTRYTQKFKGKATLTAEKSSSTAYMQLRSLASEDSAVYYCAGFASWGQGTLLTVSA VL: DIQMTQSPSSLSASLGERVNLTCRASQDIGDSLIWLQQEPDGTIKRLIYATSSLDSGVPKRFSGSRSGSDYSLTISSLESEDLVDYYCLQYASSPFTFGGGTKLEIK (field: EC50) = 3.51

CD73 antibody 22C12 (antibody, V domains shown, Mouse variable regions on human IgG heavy chain constant region and human kappa constant region (chimeric IgG); also called Clone 22C12; mAb22C12) VH: QVQFQQSGAELARPGASVKLSCKASGYTFTGYWIQWVKQRPGQGLEWIGAIYPGDDDTRYTQKFKGRATLTADTSSSTAYMQLSSLASEDSAVYYCARGNWDDWDFDVWGAGTTVTVSS VL: DIQMTQTTSSLSASLGDRVTISCRASQDISNYLNWYQQKPDGTVKLLIHYTSRLHSGVPSRFSGSGSGTDYSLTISNLEQEDIATYFCQQGDTLPWTFGGGTKLEIK yielded EC50 of 1.2

The recorded EC50 for entry CD73 antibody 7E10 (antibody, V domains shown, Mouse variable regions on human IgG heavy chain constant region and human kappa constant region (chimeric IgG); also called Clone 7E10) VH: QVQFQQSGAELVRPGASVKLSCKASGYIFSSYWIQWVKQRPGQGLEWIGAIYPGDGDTRYTQKFKDKATLTADKSSSTAYMQLSSLASEDSAVYYCAGFASWGQGTLVTVSA VL: DIQMTQSPSSLSASLGERVSLTCRASQDIGSSLNWLQQEPNGTIKRLIYATSSLDSGVPKRFSGSRSGSDYSLTISSLESEDFADYYCLQYASSPYTFGGGTKLEIK equals 2.52

Others:
Memo: CD73 antibody 8A8 (antibody, V domains shown, Mouse variable regions on human IgG heavy chain constant region and human kappa constant region (chimeric IgG); also called Clone 8A8) VH: QVQFQQSGAELARPGASVKLSCKASGYIFTSYWIQWIKQRPGQGLEWIGAIYPGDGDTRYTQKFKGKATLTADKSSSTAYMQLRSLASEDSAVYYCAGFASWGQGTLLTVSA VL: DIQMTQSPSSLSASLGERVSLTCRASQDIGESLIWLQQEPDGTIKRLIYATSSLDSGVPKRFSGSRSGSDYSLSISSLESDDFVDYYCLQYSSSPYTFGGGTKLEIK , reported EC50: 0.61

The recorded EC50 for CD73 antibody 2D4 (antibody, V domains shown, also called Clone 2D4) VH: EVKLVESGGGLVQPGGSLKLSCATSGFTFSDYYMYWVRQTPEKRLEWVAYISNVGGSTYYPDTVKGRFTISRDNAKNTLYLQMSRLKSEDTAIYYCARGDGYYGYYFDVWGAGTTVTVSS VL: QIVLTQSPAIMSASPGEKVTMTCSASSSVSYMHWYQQKSGTSPKRWIYDTSKLASGVPARFSGSGSGTSYSLTISSMEAEDAATYYCQQWSSNPYTFGGGTKLEIK is 1.25
